These data points were gathered from PubChem BioAssay.

- assay: restoration of touch response, mutant HTT neurons – whole organism, C. elegans mechanosensory neurons, N-terminal huntingtin (AID 1599)
- run_parameters: C. elegans polyQ-huntingtin mechanosensory neurons, stronger effect = higher value
Potency and affinity values are given separately.
Returns true (1) if the recorded rescue above control is greater than or equal to 4, and false (0) otherwise.

{"compound": "O=C(O)c1ccccc1Nc1cccc(C(F)(F)F)c1", "label": "false (0)"}
{"compound": "Nc1c2c(nc3ccccc13)CCCC2O (centres undefined)", "label": "false (0)"}
{"compound": "C=C1c2cccc(O)c2C(O)=C2C(=O)[C@]3(O)C(O)=C(C(N)=O)C(=O)[C@@H](N(C)C)[C@@H]3[C@@H](O)[C@H]12", "label": "false (0)"}
{"compound": "O=C1OCCN1/N=C/c1ccc([N+](=O)[O-])o1", "label": "true (1)"}
{"compound": "CC1(C)OC(=O)NC1=O", "label": "true (1)"}
{"compound": "CCCCOc1cc(C(=O)NCCN(CC)CC)c2ccccc2n1", "label": "false (0)"}
{"compound": "CCN(CC)CCNC(=O)c1cc(S(C)(=O)=O)ccc1OC", "label": "true (1)"}
{"compound": "O=C(N[C@H](CO)[C@H](O)c1ccc([N+](=O)[O-])cc1)C(Cl)Cl", "label": "false (0)"}
{"compound": "CN1CCOC(c2ccccc2)c2ccccc2C1 (centres undefined)", "label": "false (0)"}
